system: MV4-11; assay: Antiproliferative activity against human MV4-11 cells assessed as cell viability after 72 hrs by CCK8 assay; assay type: functional, cell-based; conditions: MV4-11, 72 h
I'd be grateful if you could share measured pIC50 for these entries.
Field pIC50 (float): negative decimal logarithm of the concentration in molar.

Record lookup: for MV4-11, what pIC50 belongs to `Cn1cc(-c2ccccc2F)c2cc(C(=O)NCc3ccc(C(=O)Nc4ccccc4N)cc3)[nH]c2c1=O` ?
6.64

Record lookup: for MV4-11, what pIC50 belongs to `Cc1ccccc1-c1cn(C)c(=O)c2[nH]c(C(=O)NCc3ccc(C(=O)Nc4ccccc4N)cc3)cc12` ?
6.51

Record lookup: for MV4-11, what pIC50 belongs to Cc1sc2c(c1C)C(c1ccc(Cl)cc1)=N[C@@H](CC(=O)Nc1ccc(O)cc1)c1nnc(C)n1-2 [BIRABRESIB] ?
6.70

Record lookup: for MV4-11, what pIC50 belongs to `COc1ccc(-c2cn(C)c(=O)c3[nH]c(C(=O)NCc4ccc(C(=O)Nc5ccccc5N)cc4)cc23)cc1` ?
6.49

Record lookup: for MV4-11, what pIC50 belongs to `Cn1cc(-c2ccccc2Oc2ccccc2)c2cc(C(=O)NCCCC(=O)NO)[nH]c2c1=O` ?
6.42

Record lookup: for MV4-11, what pIC50 belongs to `Cn1cc(-c2cc(C(C)(C)O)ccc2Oc2ccc(F)cc2F)c2cc(C(=O)NCc3ccc(C(=O)NO)cc3)[nH]c2c1=O` ?
6.72
